Source of measurements: paper PMC7819943

Can you tell me binding signal for the items I'm about to list?
target: OsWRKY34 (Oryza sativa, UniProt Q0JBA9 1-250); experiment: protein-binding microarray (RPBM); PBS, 2% BSA, 51.3 ng/ul salmon testes DNA, 50 uM zinc acetate, 200 nM TF, 25 C, 1 h; high values mean tight binding; details: protein: recombinant; tags: N-terminal polyhistidine and DsRed monomer fusion (pET32a); label: CyDye5-dUTP incorporated in the synthesized complementary strand; 3' TTTTT single-stranded linker to array surface; dsDNA, one strand shown
Sequence (Q0JBA9 entry or part of it): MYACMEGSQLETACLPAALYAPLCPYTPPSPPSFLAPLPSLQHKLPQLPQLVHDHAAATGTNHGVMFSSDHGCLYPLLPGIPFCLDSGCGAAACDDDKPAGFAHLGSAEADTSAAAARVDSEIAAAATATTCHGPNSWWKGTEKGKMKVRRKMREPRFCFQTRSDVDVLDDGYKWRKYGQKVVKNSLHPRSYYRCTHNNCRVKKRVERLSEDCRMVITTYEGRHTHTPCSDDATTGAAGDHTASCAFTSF
Over roughly 68,000 sequences, “fluorescence intensity (a.u.)” has its median near 9,100; the highest 2% begin near 16,000. The entries come from a sample that favours the highest values as a whole.

Lab note: measured binding signal of GTCGGGGAGGTCGGGGTCAGGGAGGTCGGGGCCGGTGATGCGGAGTCACCTAGTGCAG was 18900 fluorescence intensity (a.u.)

Lab note: measured binding signal of ATTGGGCTGGAATGAGATTCACGGGAGGGTAACTGGCGGTCGGAGTCACCTAGTGCAG was 12300 fluorescence intensity (a.u.)

Lab note: measured binding signal of GGGCCCCAGTCAGGGTGCGGGGCCACGGAGGGGTCGGGGACGGAGTCACCTAGTGCAG was 9260 fluorescence intensity (a.u.)

Lab note: measured binding signal of TTGCTCTCCTCTCTGGATTGATGTGTTCGTTTGGCCATTCCGGAGTCACCTAGTGCAG was 8940 fluorescence intensity (a.u.)

Your task in this section: give binding signal for each listed record.
1. TCCCTCCATCCCAAAATGTTATCTTTGACGTCGTTGACTTCGGAGTCACCTAGTGCAG
2. GCAGTACACTGATACGATACAATCGTTGACTGTTTCAGGACGGAGTCACCTAGTGCAG
3. CACCATCCCAAAATATTTGACGCCGTTGACTTTTTTAAAACGGAGTCACCTAGTGCAG
4. CTGCGGGAGGACGGGTCCGGGGCGGGGTCCGGGTCGGTGCCGGAGTCACCTAGTGCAG
5. GTGGGGATGGAGGCGTCGTCGGGGTCGTCGTAGAGGTGGGCGGAGTCACCTAGTGCAG

Response:
10900 fluorescence intensity (a.u.)
9230 fluorescence intensity (a.u.)
14000 fluorescence intensity (a.u.)
9780 fluorescence intensity (a.u.)
9240 fluorescence intensity (a.u.)

###

target: OsWRKY34 (Oryza sativa, UniProt Q0JBA9 1-250); test: protein-binding microarray (RPBM); PBS, 2% BSA, 51.3 ng/ul salmon testes DNA, 50 uM zinc acetate, 200 nM TF, 25 C, 1 h; high values mean tight binding; conditions: protein: recombinant; tags: N-terminal polyhistidine and DsRed monomer fusion (pET32a); label: CyDye5-dUTP incorporated in the synthesized complementary strand; 3' TTTTT single-stranded linker to array surface; dsDNA, one strand shown
Whole data set: some 68,000 sequences, median “fluorescence intensity (a.u.)” near 9,100, cut for the highest 2% near 16,000. This is one part of a sample in which the highest values are shown more often than they occur.
Can you tell me binding signal for the items I'm about to list?

Record for GCGGGGTGCGAGTGGATGGGTGGGCGTAGCGCGTGTCGTGCGGAGTCACCTAGTGCAG under target or system OsWRKY34 (Oryza sativa, UniProt Q0JBA9 1-250): binding signal reported as 10400 fluorescence intensity (a.u.)

Record for GTTGGTTTTGGGGTTTTGGAGCGTTGCGGATTGCCACGGCCGGAGTCACCTAGTGCAG under target or system OsWRKY34 (Oryza sativa, UniProt Q0JBA9 1-250): binding signal reported as 10300 fluorescence intensity (a.u.)

Record for TGGAGAGCGTTGCTTTTTTTGGGCGGGTTTGGATTTTTATCGGAGTCACCTAGTGCAG under target or system OsWRKY34 (Oryza sativa, UniProt Q0JBA9 1-250): binding signal reported as 21600 fluorescence intensity (a.u.)

Your task in this section: give binding signal for each listed record.
1. CTCATCTCACCCGTCACTACTGCACTGCGCACCATTGCCGCGGAGTCACCTAGTGCAG
2. CGGCTCGCTCAACCATACCACCTTTTCAAATTCATTTTTCCGGAGTCACCTAGTGCAG
3. GACCTGTCTACCGCCGCCCTAGTGACTAATGTTGACCACACGGAGTCACCTAGTGCAG
4. GGTGGTCGGGGCTCTGACGCGGCGGGGCGGCGGAGGTGGTCGGAGTCACCTAGTGCAG
5. GCCACAGCTCTTGATTTCTCGCTGGATCCTGGTTTTCACCCGGAGTCACCTAGTGCAG
6. AGGGGTGGATGCGCGTGGGCTGGTGGTGGTGGTGGGGATGCGGAGTCACCTAGTGCAG

Response:
8540 fluorescence intensity (a.u.)
11600 fluorescence intensity (a.u.)
12000 fluorescence intensity (a.u.)
10800 fluorescence intensity (a.u.)
8430 fluorescence intensity (a.u.)
19100 fluorescence intensity (a.u.)

Your task in this section: give binding signal for each listed record.
1. TCGGATACGAGTTTGATTCTCATCCTCCTTCATTTATATTCGGAGTCACCTAGTGCAG
2. ATCCTGATCAGATTCTGAACTCCTTTTCTCTCTGCGCCCACGGAGTCACCTAGTGCAG
3. AACTCTGGCACGATTTTTTTTATTGCAGTTTTCGTCGGATCGGAGTCACCTAGTGCAG
4. CAAGTCACGTATAAAATATTAATCATGTTTTATCATCTAACGGAGTCACCTAGTGCAG
5. TCCATCACTAGCTATTTTGGTACTTTCATCTACTTATTACCGGAGTCACCTAGTGCAG

Response:
["8320 fluorescence intensity (a.u.)", "8480 fluorescence intensity (a.u.)", "11400 fluorescence intensity (a.u.)", "8050 fluorescence intensity (a.u.)", "8340 fluorescence intensity (a.u.)"]

Your task in this section: give binding signal for each listed record.
1. CGCGCTCTGCATGTCGGTCCGTCAACTTGATCGCGATTCTCGGAGTCACCTAGTGCAG
2. AAACAGGTCACTACTATCCTCCATATATATATATTTTAGACGGAGTCACCTAGTGCAG
3. GGTTTTTTTTGGATTTATTGCTTTGTCACGTCTGGATCGTCGGAGTCACCTAGTGCAG
4. CTGGTGGTCGGTTCAGTCGGGCGGGCGGGCGGGCTCACCGCGGAGTCACCTAGTGCAG

Response:
["8590 fluorescence intensity (a.u.)", "9110 fluorescence intensity (a.u.)", "20500 fluorescence intensity (a.u.)", "22800 fluorescence intensity (a.u.)"]

Record for GGGGTGTGTGTGCTCGGCTACTCCGGTGGGTCGGGTCTGGCGGAGTCACCTAGTGCAG under target or system OsWRKY34 (Oryza sativa, UniProt Q0JBA9 1-250): binding signal reported as 12700 fluorescence intensity (a.u.)

###

biological target: OsWRKY34 (Oryza sativa, UniProt Q0JBA9 1-250); assay: protein-binding microarray (RPBM); PBS, 2% BSA, 51.3 ng/ul salmon testes DNA, 50 uM zinc acetate, 200 nM TF, 25 C, 1 h; high values mean tight binding; settings: protein: recombinant; tags: N-terminal polyhistidine and DsRed monomer fusion (pET32a); label: CyDye5-dUTP incorporated in the synthesized complementary strand; 3' TTTTT single-stranded linker to array surface; dsDNA, one strand shown
Whole data set: some 68,000 sequences, median “fluorescence intensity (a.u.)” near 9,100, cut for the highest 2% near 16,000. For the sample, the highest values were picked, then their nearest neighbours and some sequences at random.
Can you tell me binding signal for the items I'm about to list?

Example sequences with recorded binding signal:
Lab note: measured binding signal of GCTTTGGTCGGTTGGGGTGGGCTGGATGCGCCTCCGCGCTCGGAGTCACCTAGTGCAG was 17800 fluorescence intensity (a.u.)

Lab note: measured binding signal of CTTGTCTCTCTTTCTCTTTCTCTCTCTCTCACCTGTTATTCGGAGTCACCTAGTGCAG was 9740 fluorescence intensity (a.u.)

Your task in this section: give binding signal for each listed record.
1. GAAGAGGAGAGAGGAAGAGAGGTGGAAAGGGGAGGGGAAGCGGAGTCACCTAGTGCAG
2. GACACACGATTTCTTAAGGCTCATACTTTATGCTTGTCTACGGAGTCACCTAGTGCAG
3. CGCGCGGTCGAGGAGGGTGGGGCCGCCGCGCTCACCTCCGCGGAGTCACCTAGTGCAG

Response:
1. 9460 fluorescence intensity (a.u.)
2. 11300 fluorescence intensity (a.u.)
3. 8480 fluorescence intensity (a.u.)

###

target: OsWRKY34 (Oryza sativa, UniProt Q0JBA9 1-250); assay: protein-binding microarray (RPBM); PBS, 2% BSA, 51.3 ng/ul salmon testes DNA, 50 uM zinc acetate, 200 nM TF, 25 C, 1 h; high values mean tight binding; conditions: protein: recombinant; tags: N-terminal polyhistidine and DsRed monomer fusion (pET32a); label: CyDye5-dUTP incorporated in the synthesized complementary strand; 3' TTTTT single-stranded linker to array surface; dsDNA, one strand shown
Over roughly 68,000 sequences, “fluorescence intensity (a.u.)” has its median near 9,100; the highest 2% begin near 16,000. The full list was thinned out, with the highest values kept by preference.
ATTRIBUTE MEASURED: binding signal

Example sequences with recorded binding signal:
Lab note: measured binding signal of CGGTGTCGGATTTTTGGTTGGTTGACGGGGTTTGTGAGGTCGGAGTCACCTAGTGCAG was 17500 fluorescence intensity (a.u.)

Lab note: measured binding signal of TAATAAGTGAGACCAAATATTGATTGTGTAGTATATATTTCGGAGTCACCTAGTGCAG was 8670 fluorescence intensity (a.u.)

Your task in this section: give binding signal for each listed record.
1. GGTTTCTTGGATTGGGCTGTGGCTGGCGTTGGTCGGAGGACGGAGTCACCTAGTGCAG
2. TTTCTTGGCTGGTTTGGTTGTGGATTGGATTGGATTGGGTCGGAGTCACCTAGTGCAG
3. CATCGTTGACCAAGAATAAGAACAGCGAATTTGCATAATGCGGAGTCACCTAGTGCAG

Response:
["19100 fluorescence intensity (a.u.)", "16100 fluorescence intensity (a.u.)", "14700 fluorescence intensity (a.u.)"]
